# TARGET UNDER TEST: CAMKK2 (human) (UniProt Q96RR4)
# Sequence (Q96RR4 whole entry, looked up): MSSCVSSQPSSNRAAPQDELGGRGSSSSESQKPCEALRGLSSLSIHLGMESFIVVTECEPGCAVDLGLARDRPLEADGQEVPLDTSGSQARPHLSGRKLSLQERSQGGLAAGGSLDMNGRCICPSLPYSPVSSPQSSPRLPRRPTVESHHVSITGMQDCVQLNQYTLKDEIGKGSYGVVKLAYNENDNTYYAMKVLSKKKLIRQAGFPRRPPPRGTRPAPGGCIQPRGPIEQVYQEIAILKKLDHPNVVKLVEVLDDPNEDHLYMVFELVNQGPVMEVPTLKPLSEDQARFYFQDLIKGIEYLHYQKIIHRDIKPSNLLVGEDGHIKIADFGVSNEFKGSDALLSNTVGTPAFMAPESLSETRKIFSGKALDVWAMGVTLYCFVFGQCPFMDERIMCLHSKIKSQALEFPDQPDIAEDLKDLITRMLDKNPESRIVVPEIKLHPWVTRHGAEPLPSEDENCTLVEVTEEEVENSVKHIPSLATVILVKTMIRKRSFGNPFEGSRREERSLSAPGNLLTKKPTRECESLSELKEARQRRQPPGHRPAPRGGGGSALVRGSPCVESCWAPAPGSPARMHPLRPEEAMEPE
# ASSAY: radiometric filter-binding kinase assay
# CONDITION LABEL: compound 10.0 µM
ENDPOINT NAME: residual activity (%)

COMPOUND: CCCCCc1ccc(/C=C/[C@H](O)[C@@H](CO)NC)cc1
residual activity / %: 90
--
COMPOUND: Oc1ccc2ccccc2c1SSc1c(O)ccc2ccccc12
residual activity / %: 90
--
COMPOUND: Nc1cccc2c1CN(C1CCC(=O)NC1=O)C2=O (stereo not drawn)
residual activity / %: 84

---

# TARGET UNDER TEST: CHEK1 (human) (UniProt O14757)
# Sequence (O14757 whole entry, looked up): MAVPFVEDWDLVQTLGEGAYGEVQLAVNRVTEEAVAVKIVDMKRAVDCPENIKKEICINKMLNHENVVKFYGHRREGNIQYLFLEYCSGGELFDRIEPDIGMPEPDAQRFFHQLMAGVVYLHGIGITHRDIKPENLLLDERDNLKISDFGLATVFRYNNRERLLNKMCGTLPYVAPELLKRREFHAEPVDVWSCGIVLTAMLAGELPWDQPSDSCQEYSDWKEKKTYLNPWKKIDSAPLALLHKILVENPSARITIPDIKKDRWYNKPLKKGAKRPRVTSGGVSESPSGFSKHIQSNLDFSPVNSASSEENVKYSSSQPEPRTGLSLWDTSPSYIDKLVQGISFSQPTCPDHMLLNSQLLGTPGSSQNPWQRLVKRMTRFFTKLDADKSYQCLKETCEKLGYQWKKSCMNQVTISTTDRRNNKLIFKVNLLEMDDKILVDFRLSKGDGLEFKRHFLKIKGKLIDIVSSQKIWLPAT
# ASSAY: radiometric filter-binding kinase assay
# CONDITION LABEL: compound 10.0 µM
ENDPOINT NAME: residual activity (%)

COMPOUND: Cc1ccc(-c2ccc3c(ccc4sc5c(c43)NC[C@@H](C)NC5=O)n2)cn1
residual activity (%): 112

COMPOUND: CC(C)C[C@H](NC(=O)CNC(=O)c1cc(Cl)ccc1Cl)B1OC(=O)CC(CC(=O)O)(C(=O)O)O1 (some centres undefined)
residual activity (%): 107

COMPOUND: CCc1cncnc1N1CCN(Cc2nc3cc(C(F)(F)F)ccc3[nH]2)CC1
residual activity (%): 83

COMPOUND: CC(C)(C#N)c1ccc(N2C(=O)OCc3cnc4ccc(-c5cnc6ccccc6c5)cc4c32)cc1
residual activity (%): 100

COMPOUND: CNc1nc(-c2ccc3c(N)n[nH]c3c2)cc(N2C[C@@H](C(=O)NC3CCCCC3)CC[C@H]2C)n1
residual activity (%): 103

COMPOUND: Oc1ccc(/C=C/c2cc(O)cc(O)c2)cc1
residual activity (%): 79

COMPOUND: Cc1ccc2c(c1)C(=O)[C@@]1(O)CCN(c3ccccc3)C1=N2
residual activity (%): 90

COMPOUND: O=C(O)c1ccc(-c2c[nH]c3ncc(-c4ccccc4)cc23)cc1C1CCCC1
residual activity (%): 79

COMPOUND: N#Cc1c(O)c2c(-c3ccc(-c4ccccc4O)cc3)csc2[nH]c1=O
residual activity (%): 69

COMPOUND: Oc1ccc2ccccc2c1SSc1c(O)ccc2ccccc12
residual activity (%): 88

COMPOUND: O=S(=O)(c1ccc(F)c2nonc12)N1CCN(c2ncc(C(F)(F)F)cc2Cl)CC1
residual activity (%): 96

COMPOUND: O=C(Nc1ccccc1-c1cn2c(CN3CCNCC3)csc2n1)c1cnc2ccccc2n1
residual activity (%): 96

COMPOUND: NC(=O)c1c(NC(=O)C2CC2)sc2c1CCCC2
residual activity (%): 84

COMPOUND: O=C(N[C@@H](COc1ccc2[nH]c(=O)[nH]c2c1)c1ccccc1)c1cccn(Cc2ccc(F)c(F)c2)c1=O
residual activity (%): 95

---

# TARGET UNDER TEST: MKNK1 (human)
# ASSAY: radiometric filter-binding kinase assay
# CONDITION LABEL: compound 1.0 µM
ENDPOINT NAME: residual activity (%)

STRUCTURE: Cc1cc(NC(=O)c2cccc(NC(=O)/C=C/CN(C)C)c2)ccc1Nc1nccc(-c2cccnc2)n1
residual activity [%]: 88
//
STRUCTURE: CCNc1nc(Nc2cc(F)c(C(=O)N3CCOCC3)cc2OC)ncc1C(F)(F)F
residual activity [%]: 92
//
STRUCTURE: Cc1cccc(Nc2nn(C)c3ncnc(N)c23)c1
residual activity [%]: 92
//
STRUCTURE: FC(F)(F)c1ccc(-c2ccc(Oc3cncc4sc(-c5nn[nH]n5)cc34)cc2)cc1
residual activity [%]: 89
//
STRUCTURE: Cc1cc(SCc2sc(-c3ccc(C(F)(F)F)cc3)nc2C)ccc1OCC(=O)O
residual activity [%]: 89

Values compiled from the kinase profiling compilation of Christmann-Franck et al. (2016).
